Origin of measurements: PubChem BioAssay (NCI)

- System: RPMI-8226 leukemia
- methodDescription: NCI tumour cell line growth inhibition, 48 h
Kindly state TGI for each of the entries shown.
Express your answer in µM, writing the number without its unit.

Item: CC1(C)Cc2cccc(OCC(O)CN3CCN(c4ccc(F)cc4)CC3)c2O1 (stereo not drawn) Test system: RPMI-8226 leukemia Read-out: TGI Value: ? 26.2

Also "Cc1ccc(-c2c(C#N)c(-c3ccc([N+](=O)[O-])cc3)c(C#N)c(=O)n2NS(=O)(=O)c2ccc(C)cc2)cc1" , if possible. 47

Please give the result for C=C1C(=O)OC2C[C@H](C)C3CC(=O)C(C)=C3CC12 (stereo partly drawn) too. 21.9

Repeat for the following compound: "Brc1ccccc1/C=C\C1(c2ccccc2)OCCO1" 6.78

Similarly, "Cc1cc(Cl)ccc1NC(=O)/C(Cl)=C(/Cl)C(=O)O" ? 70.5

Request: "O=c1c2c(sc3ccccc13)NCN(CCc1ccccc1)C2" 43

Lookup "CCCCCCCCCCCC1=NC(C)(C)CN1CCO" 7.46

# iterate: "COc1ccc(-c2nc(N(C)C)c3ccccc3n2)cc1" 24.3

What would you report for "Cn1c(=O)cc(NNc2ccc(Br)cc2)[nH]c1=O" ? 46

Also need "COc1ccc2c(C)cc(N/N=C/c3sccc3C)nc2c1" , thanks. 26.6

Follow-up item: "COc1ccccc1CNCCCN1C(=O)c2ccc3c4c(ccc(c24)C1=O)C(=O)N(CCCNCCCCNCCCCN)C3=O" 9.62

# repeat for "Cc1c(C)c(S(=O)(=O)N(CCCCCN)OCCCN)c(C)c2c1OC(C)(C)CC2" 18

====

- System: U251 CNS
- methodDescription: NCI tumour cell line growth inhibition, 48 h
assayMetric: TGI

I'd like to know its TGI. The compound in question is "CCc1ccc(CCC(=O)O)nc1" > 100 µM

Please give the result for "CCc1ccc(CCC(=O)Nc2ncc(Cc3cc(Cl)ccc3Cl)s2)o1" too. 11.7 µM

How about this compound: "O=c1c2cc(Br)ccc2[nH]c(=S)n1-c1ccc(Br)cc1" > 100 µM

Can you handle "Cn1c(N(CCO)CCO)cnc1[N+](=O)[O-]" next? > 100 µM

Try this compound too: "CCOCCc1c(O)nc(SC)[nH]c1=O" > 100 µM

# repeat for "O=C1C(c2ccc([N+](=O)[O-])cc2)=[N+]([O-])c2ccccc21" 36.3 µM

Continue with O=C(O)c1cc(N/C=C2\C(=O)c3ccccc3OC2O)ccc1O (stereo unspecified) 43.6 µg/mL

Note, next up: "O=C(O)CN(CC(=O)O)Cc1cc2c(cc1O)Oc1cc(O)c(CN(CC(=O)O)CC(=O)O)cc1C21OC(=O)c2ccccc21" > 100 µM

Next compound up: "O=C(Nc1ccc(Cl)c(Cl)c1)C(=O)Nn1c(=S)[nH]c2ccccc2c1=O" > 100 µM

Also "O=C(O)CNC(=O)c1ccccc1O" ? > 100 µM

// same read-out, input: "CCOc1cc(C=O)c2c(ccc3ccc(OC)c(OC)c32)c1OC" > 100 µM

====

- Test system: SK-MEL-5 melanoma
- methodDescription: NCI tumour cell line growth inhibition, 48 h
I'd be grateful if you could share measured TGI for these entries.

What value of TGI has been reported for the following compound? "C(=N/Nc1ncnc2nc[nH]c12)/c1ccccn1" 4.61 µM

// repeat for COc1c(OC(C)=O)c(OC(C)=O)cc2c1-c1ccc(OC)c(=O)cc1C(NC(C)=O)CC2 (stereo unspecified) and report 0.0264 µM

Entry "O=C(Nc1ccc(Cl)c(Cl)c1)C(=O)Nn1c(=S)[nH]c2ccccc2c1=O" please > 100 µM

Continue with "Cc1c2ccccc2c(CO)c2cc(F)c3ccccc3c12" > 100 µM

Please answer likewise for "CSc1c(CC(=O)O)n(Cc2ccccc2)c2ccccc12" > 100 µM

Please answer likewise for "C[N+](C)(C)CCC(=O)N1C/C(=C\c2ccccc2)C(=O)/C(=C/c2ccccc2)C1" 22.6 µM

Same question, "O=C(O)CNC(=O)c1ccccc1O" this time > 100 µM

Okay, and "CC(=O)OCc1cccc(O)c1C(=O)CCC=C(C)C" ? > 100 µM

Likewise for "c1ccc2c(c1)ccc1ncccc12" ? > 100 µM

Now the same for COc1ccc(N2C(=O)C3c4[nH]c5ccccc5c4C4CCCCCCCC4C3C2=O)cc1 (stereo unspecified) > 10 µM

Do the same for "Cn1c(=O)nc2n(-c3ccc(F)cc3)c3ccccc3nc-2c1=O" please 25.8 µM
